# Test system: Rattus norvegicus
# condition.context: uterotrophic; duration: 3 days; oral; Active
reported.metric: LEL (mg/kg-day)
Quick note: give the figure in mg/kg-day, leave out the unit.

[[record]]
molecule = "Cc1c(COC(=O)[C@@H]2[C@H](/C=C(\\Cl)C(F)(F)F)C2(C)C)cccc1-c1ccccc1"
unit_of_measure = "mg/kg-day"
obs_value = 13.2


Inquiry: Fill in LEL for record `Clc1ccc(C(c2ccc(Cl)cc2)C(Cl)(Cl)Cl)cc1`
Reply text: 100

Inquiry: Dear colleague, please send me the reported LEL for CCOC(=O)C(C)(C)Oc1ccc(Cl)cc1 [Clofibrate] when you can.
Reply text: 4

Inquiry: Please give measured LEL of the following entry: `C#C[C@]1(O)CC[C@H]2[C@@H]3CCc4cc(OC)ccc4[C@H]3CC[C@@]21C`
Reply text: 0.01

Inquiry: Could you please provide reported LEL for `CCC(CC)Nc1c([N+](=O)[O-])cc(C)c(C)c1[N+](=O)[O-]` ? Thanks!
Reply text: 300
